target: Muscarinic acetylcholine receptor M4 (Homo sapiens) (UniProt P08173); assay: compounds altering M4/GIRK thallium flux, either direction, primary screen, M4 allosteric agonist project, cell-based, HEK293 M4/GIRK, BTC-AM (AID 625); settings: at 10 µM, actives lie on both sides;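 note: thallium influx through GIRK channels coupled to M4 in HEK293 cells with BTC-AM dye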
Sequence (P08173 whole entry, looked up): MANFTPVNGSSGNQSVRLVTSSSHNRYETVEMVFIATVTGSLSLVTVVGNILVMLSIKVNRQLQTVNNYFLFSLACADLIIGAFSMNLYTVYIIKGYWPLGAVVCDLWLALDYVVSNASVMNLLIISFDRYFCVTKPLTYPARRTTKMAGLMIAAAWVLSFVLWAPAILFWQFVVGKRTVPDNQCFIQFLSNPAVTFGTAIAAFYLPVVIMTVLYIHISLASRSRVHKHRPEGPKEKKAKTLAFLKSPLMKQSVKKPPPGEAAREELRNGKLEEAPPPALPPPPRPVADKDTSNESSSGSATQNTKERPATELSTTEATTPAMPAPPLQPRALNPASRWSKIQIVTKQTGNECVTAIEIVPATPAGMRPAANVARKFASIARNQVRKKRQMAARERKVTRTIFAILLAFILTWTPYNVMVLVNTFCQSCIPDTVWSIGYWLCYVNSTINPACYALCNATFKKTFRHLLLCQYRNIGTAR
Measured fluorescence slope, listed per entry.
# respond with the number and nothing more

Cc1cc(/C=N\O)c(C)n1-c1ccncc1 | 0.00493
Cc1cc(O)c(C(C)C)cc1N=C1CSC(=O)N1 | 0.00491

Query :: Which fluorescence slope reading was recorded for the compound CS(=O)(=O)Nc1ccc([N+](=O)[O-])cc1Oc1ccccc1 ?
Result :: 0.00499

Query :: Try O=C(O)c1cc(=O)cc(C(=O)O)[nH]1 next.
Result :: 0.00559

Query :: Try Fc1ccc(-c2cnc[nH]2)cc1 next.
Result :: 0.00534

Query :: Try CC1(C)Cc2c(c(-c3ccccc3)[nH]c(=O)c2C#N)CS1 next.
Result :: 0.0044

Query :: Try CC(CN1CCN(C)CC1)OC(=O)c1ccc(Cl)cc1Cl (configuration not stated) next.
Result :: 0.00468
